# System: S. agalactiae
# Measurement Description: In vitro MIC testing, antibacterial spectrum of activity
# Type: cell-based
# Test Parameters: Streptococcus agalactiae
Listed here are molecules together with their documented MIC90.
Observable: MIC90

Molecule	Tested Target	Observable	Val
CN[C@H](CC(C)C)C(=O)N[C@H]1C(=O)N[C@@H](CC(N)=O)C(=O)N[C@H]2C(=O)N[C@H]3C(=O)N[C@H](C(=O)N[C@H](C(=O)O)c4cc(O)cc(O)c4-c4cc3ccc4O)[C@H](O)c3ccc(c(Cl)c3)Oc3cc2cc(c3O[C@@H]2O[C@H](CO)[C@@H](O)[C@H](O)[C@H]2O[C@H]2C[C@](C)(N)[C@H](O)[C@H](C)O2)Oc2ccc(cc2Cl)[C@H]1O [Vancomycin]	S. agalactiae	MIC90	0.5 µg/mL
CCC[C@@H]1C[C@@H](C(=O)N[C@@H]([C@H]2O[C@H](SC)[C@H](O)[C@@H](O)[C@H]2O)[C@H](C)Cl)N(C)C1 [Clindamycin]	S. agalactiae	MIC90	> 16 µg/mL
CC[C@H]1OC(=O)[C@H](C)[C@@H](O[C@H]2C[C@@](C)(OC)[C@@H](O)[C@H](C)O2)[C@H](C)[C@@H](O[C@@H]2O[C@H](C)C[C@H](N(C)C)[C@H]2O)[C@](C)(O)C[C@@H](C)C(=O)[C@H](C)[C@@H](O)[C@]1(C)O [Erythromycin]	S. agalactiae	MIC90	> 16 µg/mL
CN(C)[C@@H]1C(O)=C(C(N)=O)C(=O)[C@@]2(O)C(O)=C3C(=O)c4c(O)cccc4[C@@](C)(O)[C@H]3C[C@@H]12 [Tetracycline, tetracycline]	S. agalactiae	MIC90	> 32 µg/mL
